Experiment: In vitro enzymatic digestion model of the digestive tract (pepsin, pancreatin, bile), HPLC
Type: in vitro ADME
Settings: Intestinal phase 30 min.; read-out: Degradation (%)
Where no end group is shown, it is not given here.
Assign metabolised at 0.5 h to each entry below.
Numbers only, in %.

Worked cases, answers included:
- substance: "QGENEEEDSGAIVTVK [Peptide P16f, QGENEEEDSGAIVTVK]"
  recorded-endpoint: "metabolised at 0.5 h"
  reported-value: 100
- substance: "SDNFEY [Peptide P6a, SDNFEY]"
  recorded-endpoint: "metabolised at 0.5 h"
  reported-value: 100
- substance: "SVIKPPTD [Peptide P8a, SVIKPPTD]"
  recorded-endpoint: "metabolised at 0.5 h"
  reported-value: 71.6
- substance: "QGENEGEDKGAIVT [Peptide P14b, QGENEGEDKGAIVT]"
  recorded-endpoint: "metabolised at 0.5 h"
  reported-value: 48.9

// next entry
The substance listed as EEDQPRPDHPPQRP [Peptide P14c, EEDQPRPDHPPQRP] shows metabolised at 0.5 h equal to 93.2

Data origin: patent US9802990B2
